# condition: in isopropanol, 313.15 K
measure: solubility (mole fraction)
Please reply with the number alone, leaving off any unit.

**Query** Bench note: what solubility (mole fraction) did O=C(O)COc1ccc(Cl)cc1 show?
**Result** 0.0703

====

# condition: in ethyl acetate, 308.15 K
measure: solubility (mole fraction)
Please reply with the number alone, leaving off any unit.

**Query** Bench note: what solubility (mole fraction) did O=C(O)COc1ccc(Cl)cc1 show?
**Result** 0.0537

====

# condition: in n-propanol, 308.15 K
measure: solubility (mole fraction)
Please reply with the number alone, leaving off any unit.

**Query** Bench note: what solubility (mole fraction) did O=C(O)COc1ccc(Cl)cc1 show?
**Result** 0.0618

====

# condition: in n-butanol, 323.15 K
measure: solubility (mole fraction)
Please reply with the number alone, leaving off any unit.

**Query** Bench note: what solubility (mole fraction) did O=C(O)COc1ccc(Cl)cc1 show?
**Result** 0.101

====

# condition: in ethanol, 308.15 K
measure: solubility (mole fraction)
Please reply with the number alone, leaving off any unit.

**Query** Bench note: what solubility (mole fraction) did O=C(O)COc1ccc(Cl)cc1 show?
**Result** 0.0643

====

# condition: in methyl acetate, 303.15 K
measure: solubility (mole fraction)
Please reply with the number alone, leaving off any unit.

**Query** Bench note: what solubility (mole fraction) did O=C(O)COc1ccc(Cl)cc1 show?
**Result** 0.0496

====

# condition: in ethyl acetate, 303.15 K
measure: solubility (mole fraction)
Please reply with the number alone, leaving off any unit.

**Query** Bench note: what solubility (mole fraction) did O=C(O)COc1ccc(Cl)cc1 show?
**Result** 0.0468

====

# condition: in n-propanol, 288.15 K
measure: solubility (mole fraction)
Please reply with the number alone, leaving off any unit.

**Query** Bench note: what solubility (mole fraction) did O=C(O)COc1ccc(Cl)cc1 show?
**Result** 0.0292

====

# condition: in sec-butanol, 288.15 K
measure: solubility (mole fraction)
Please reply with the number alone, leaving off any unit.

**Query** Bench note: what solubility (mole fraction) did O=C(O)COc1ccc(Cl)cc1 show?
**Result** 0.0279

====

# condition: in n-propyl acetate, 308.15 K
measure: solubility (mole fraction)
Please reply with the number alone, leaving off any unit.

**Query** Bench note: what solubility (mole fraction) did O=C(O)COc1ccc(Cl)cc1 show?
**Result** 0.0454

====

# condition: in n-propyl acetate, 298.15 K
measure: solubility (mole fraction)
Please reply with the number alone, leaving off any unit.

**Query** Bench note: what solubility (mole fraction) did O=C(O)COc1ccc(Cl)cc1 show?
**Result** 0.035

====

# condition: in methyl acetate, 318.15 K
measure: solubility (mole fraction)

**Query** Bench note: what solubility (mole fraction) did O=C(O)COc1ccc(Cl)cc1 show?
**Result** 0.0766

====

# condition: in ethyl acetate, 288.15 K
measure: solubility (mole fraction)
Please reply with the number alone, leaving off any unit.

**Query** Bench note: what solubility (mole fraction) did O=C(O)COc1ccc(Cl)cc1 show?
**Result** 0.0303

====

# condition: in acetonitrile, 298.15 K
measure: solubility (mole fraction)
Please reply with the number alone, leaving off any unit.

**Query** Bench note: what solubility (mole fraction) did O=C(O)COc1ccc(Cl)cc1 show?
**Result** 0.0134

====

# condition: in n-butyl acetate, 303.15 K
measure: solubility (mole fraction)
Please reply with the number alone, leaving off any unit.

**Query** Bench note: what solubility (mole fraction) did O=C(O)COc1ccc(Cl)cc1 show?
**Result** 0.0387

====

# condition: in isopropanol, 323.15 K
measure: solubility (mole fraction)
Please reply with the number alone, leaving off any unit.

**Query** Bench note: what solubility (mole fraction) did O=C(O)COc1ccc(Cl)cc1 show?
**Result** 0.0997

====

# condition: in acetonitrile, 283.15 K
measure: solubility (mole fraction)

**Query** Bench note: what solubility (mole fraction) did O=C(O)COc1ccc(Cl)cc1 show?
**Result** 0.00781

====

# condition: in ethyl acetate, 293.15 K
measure: solubility (mole fraction)
Please reply with the number alone, leaving off any unit.

**Query** Bench note: what solubility (mole fraction) did O=C(O)COc1ccc(Cl)cc1 show?
**Result** 0.036

====

# condition: in isopropanol, 303.15 K
measure: solubility (mole fraction)
Please reply with the number alone, leaving off any unit.

**Query** Bench note: what solubility (mole fraction) did O=C(O)COc1ccc(Cl)cc1 show?
**Result** 0.0476

====

# condition: in ethanol, 323.15 K
measure: solubility (mole fraction)

**Query** Bench note: what solubility (mole fraction) did O=C(O)COc1ccc(Cl)cc1 show?
**Result** 0.114

====

# condition: in ethyl formate, 298.15 K
measure: solubility (mole fraction)

**Query** Bench note: what solubility (mole fraction) did O=C(O)COc1ccc(Cl)cc1 show?
**Result** 0.0223

====

# condition: in n-propanol, 283.15 K
measure: solubility (mole fraction)
Please reply with the number alone, leaving off any unit.

**Query** Bench note: what solubility (mole fraction) did O=C(O)COc1ccc(Cl)cc1 show?
**Result** 0.0255

====

# condition: in 1,4-dioxane, 318.15 K
measure: solubility (mole fraction)

**Query** Bench note: what solubility (mole fraction) did O=C(O)COc1ccc(Cl)cc1 show?
**Result** 0.194

====

# condition: in n-propanol, 313.15 K
measure: solubility (mole fraction)
Please reply with the number alone, leaving off any unit.

**Query** Bench note: what solubility (mole fraction) did O=C(O)COc1ccc(Cl)cc1 show?
**Result** 0.0748

====

# condition: in n-propanol, 298.15 K
measure: solubility (mole fraction)
Please reply with the number alone, leaving off any unit.

**Query** Bench note: what solubility (mole fraction) did O=C(O)COc1ccc(Cl)cc1 show?
**Result** 0.0415

====

# condition: in sec-butanol, 308.15 K
measure: solubility (mole fraction)
Please reply with the number alone, leaving off any unit.

**Query** Bench note: what solubility (mole fraction) did O=C(O)COc1ccc(Cl)cc1 show?
**Result** 0.0617

====

# condition: in isopropanol, 298.15 K
measure: solubility (mole fraction)
Please reply with the number alone, leaving off any unit.

**Query** Bench note: what solubility (mole fraction) did O=C(O)COc1ccc(Cl)cc1 show?
**Result** 0.039

====

# condition: in n-butyl acetate, 318.15 K
measure: solubility (mole fraction)
Please reply with the number alone, leaving off any unit.

**Query** Bench note: what solubility (mole fraction) did O=C(O)COc1ccc(Cl)cc1 show?
**Result** 0.0593

====

# condition: in sec-butanol, 303.15 K
measure: solubility (mole fraction)
Please reply with the number alone, leaving off any unit.

**Query** Bench note: what solubility (mole fraction) did O=C(O)COc1ccc(Cl)cc1 show?
**Result** 0.0505

====

# condition: in 1,4-dioxane, 288.15 K
measure: solubility (mole fraction)

**Query** Bench note: what solubility (mole fraction) did O=C(O)COc1ccc(Cl)cc1 show?
**Result** 0.113

====

# condition: in n-butyl acetate, 298.15 K
measure: solubility (mole fraction)
Please reply with the number alone, leaving off any unit.

**Query** Bench note: what solubility (mole fraction) did O=C(O)COc1ccc(Cl)cc1 show?
**Result** 0.0334

====

# condition: in 1,4-dioxane, 298.15 K
measure: solubility (mole fraction)

**Query** Bench note: what solubility (mole fraction) did O=C(O)COc1ccc(Cl)cc1 show?
**Result** 0.135

====

# condition: in n-butanol, 288.15 K
measure: solubility (mole fraction)

**Query** Bench note: what solubility (mole fraction) did O=C(O)COc1ccc(Cl)cc1 show?
**Result** 0.0282

====

# condition: in isobutanol, 323.15 K
measure: solubility (mole fraction)
Please reply with the number alone, leaving off any unit.

**Query** Bench note: what solubility (mole fraction) did O=C(O)COc1ccc(Cl)cc1 show?
**Result** 0.0843

====

# condition: in acetonitrile, 323.15 K
measure: solubility (mole fraction)

**Query** Bench note: what solubility (mole fraction) did O=C(O)COc1ccc(Cl)cc1 show?
**Result** 0.0359

====

# condition: in n-butanol, 318.15 K
measure: solubility (mole fraction)
Please reply with the number alone, leaving off any unit.

**Query** Bench note: what solubility (mole fraction) did O=C(O)COc1ccc(Cl)cc1 show?
**Result** 0.0855

====

# condition: in ethyl formate, 293.15 K
measure: solubility (mole fraction)

**Query** Bench note: what solubility (mole fraction) did O=C(O)COc1ccc(Cl)cc1 show?
**Result** 0.0193

====

# condition: in methyl acetate, 298.15 K
measure: solubility (mole fraction)
Please reply with the number alone, leaving off any unit.

**Query** Bench note: what solubility (mole fraction) did O=C(O)COc1ccc(Cl)cc1 show?
**Result** 0.0433

====

# condition: in isobutanol, 293.15 K
measure: solubility (mole fraction)
Please reply with the number alone, leaving off any unit.

**Query** Bench note: what solubility (mole fraction) did O=C(O)COc1ccc(Cl)cc1 show?
**Result** 0.0224

====

# condition: in n-butanol, 283.15 K
measure: solubility (mole fraction)
Please reply with the number alone, leaving off any unit.

**Query** Bench note: what solubility (mole fraction) did O=C(O)COc1ccc(Cl)cc1 show?
**Result** 0.0243
